# test system: human autotaxin (Homo sapiens (Human), UniProt Q13822)
# assay method text: Human Autotaxin Assay
# Type: biochemical
# Experimental: ATX activity is assayed in concentrated conditioned media from Hep3B human hepatocellular carcinoma cells by measuring the amount of choline released from the substrate, lysophosphatidylcholine (LPC) as it is cleaved to LPA. Conditioned media is collected from confluent Hep3B cells and concentrated 20-fold using Centriprep-30 filter devices (Millipore). […]
pIC50: −log10 of the molar value.
metric name: pIC50

Data request: Provide the reported pIC50 (system: human autotaxin (Homo sapiens (Human), UniProt Q13822)) for N#C/C(=C\c1cn(Cc2ccc(F)cc2)c2nc(Cl)ccc12)c1ccc(C(=O)O)cc1 [Compound 3-3]
Data returned: 5.00 to 6.30

---

# test system: human autotaxin (Homo sapiens (Human), UniProt Q13822)
# assay method text: Human Autotaxin Assay
# Assay type: biochemical
# setup conditions: ATX in concentrated conditioned media from Hep3B cells; choline released from LPC substrate; read-out: IC50
metric name: IC50

Data request: Quick one: give measured IC50 for O=C(O)c1ccc(/C=C/c2nn(Cc3ccc(F)cc3)c3cc(Cl)ccc23)cc1 [Compound 1-8]
Data returned: 0.5 to 10 µM

Data request: Report IC50 for CCCn1cc(-n2c(C)c(/C=C(\C#N)c3ccc(C(=O)O)cc3)c3ccsc32)cn1 [Compound 5-1]
Data returned: > 10 µM

Data request: Determine its reported IC50: N#C/C(=C\c1nn(Cc2ccccc2)c2cc(Cl)ccc12)c1ccc(C(=O)O)cc1 [Compound 1-2]
Data returned: < 0.5 µM

Data request: Look up and report measured IC50 for this entry: N#C/C(=C\c1nn(Cc2cc(Cl)cc(Cl)c2)c2cc(Cl)ccc12)c1ccc(C(=O)O)cc1 [Compound 1-3]
Data returned: 0.5 to 10 µM

---

# test system: human autotaxin (Homo sapiens (Human), UniProt Q13822)
# assay method text: Human Autotaxin Assay
# Type: biochemical
# setup conditions: ATX in concentrated conditioned media from Hep3B cells; choline released from LPC substrate; read-out: IC50
So I've got a bunch of compounds here, and I need their IC50 values.

Data request: Return the recorded IC50 value; entry: COc1ccc(Cn2nc(/C=C(\C#N)c3ccc(C(=O)O)cc3)c3ccc(Cl)cc32)cn1
Data returned: < 500 nM

Data request: Give reported IC50 value for COc1ccc(Cn2cc(/C=C(\C#N)c3ccc(C(=O)O)cc3)c3cccnc32)cn1
Data returned: 500 to 10000 nM

Data request: Give IC50 for Cn1ccc(Cn2nc(/C=C(\C#N)c3ccc(C(=O)O)cc3)c3ccc(Cl)cc32)n1
Data returned: > 10000 nM

Data request: For the compound N#C/C(=C\c1nn(Cc2ccc(Cl)nc2)c2cc(Cl)ccc12)c1ccc(C(=O)O)cc1 , give its measured IC50 value.
Data returned: < 500 nM

Data request: Determine its reported IC50: N#C/C(=C\c1nn(Cc2cc(C(F)(F)F)cc(C(F)(F)F)c2)c2cc(Cl)ccc12)c1ccc(C(=O)O)cc1
Data returned: 500 to 10000 nM

Data request: Look up and state reported IC50 for N#C/C(=C\c1nn(Cc2ccc(F)cc2)c2cc(Cl)ccc12)c1ccc(C(=O)O)cc1
Data returned: < 500 nM

Data request: Read off the recorded IC50 for N#C/C(=C\c1cn(Cc2ccc(F)cc2)c2ncccc12)c1ccc(C(=O)O)cc1
Data returned: < 500 nM

Data request: Answer with the recorded IC50 for the compound listed here: COc1ccc(Cn2cc(/C=C(\C#N)c3ccc(C(=O)O)cc3)c3ccc(Cl)nc32)cn1
Data returned: < 500 nM
